test-system: human recombinant his-tagged HSP90α (Homo sapiens)
Construct: purchased Prospec Technogene #HSP90
assay-method-text: Hsp90 HTRF assay (competition with biotinylated GM for binding to HSP90)
condition-label: bio-GM displacement, 20 h incubation at room temperature, read-out: Inhibitor Activity vs Hsp90
pIC50: −log10 of the molar value.
assay-endpoint: pIC50

Query: Need pIC50 of Nc1ncnc2c1nc(Sc1ccc3c(c1)OCO3)n2-c1ccc(C[C@H](N)C(=O)OC2CCCC2)cc1 , thanks.
Result: 5.00 to 6.00

Query: # input molecule: Nc1ncnc2c1nc(Sc1cc3c(cc1I)OCO3)n2CCC[C@@H](N)C(=O)OC1CCCC1 ; wanted: its pIC50
Result: > 6.00

Query: Quick check: pIC50 of Nc1ncnc2c1nc(Sc1cc3c(cc1I)OCO3)n2C[C@H](N)C(=O)OC1CCCC1 ?
Result: > 6.00

Query: Which pIC50 is listed for Nc1ncnc2c1nc(Sc1ccc3c(c1)OCO3)n2-c1ccc(C[C@H](N)C(=O)O)cc1 ?
Result: 5.00 to 6.00
